What remaining at 4 h, 5 μM was measured for each of the following?
assay: In vitro stability in rat liver homogenate; type: in vitro ADME; settings: tissue homogenate
Starred links: 1 amine or outer side, 2 acyl side, 3 side chain; linkers in the order of their positions; H or OH if unused. Non-standard residues stand in square brackets, D forms with d. Residues, ends and D or L forms follow the SMILES beside them. *: point of attachment. Phe(4-Cl) = N[C@@H](Cc1ccc(Cl)cc1)C(=O)O; γGlu = O=C(O)[C@H](CCC(=O)[*:2])N[*:1]; Tridecanoyl = CCCCCCCCCCCCC(=O)*; Nle = CCCC[C@H](N)C(=O)O; AEEA = NCCOCCOCC(=O)O

Query: Report remaining at 4 h, 5 μM for CCCCCCCCCCCCC(=O)N[C@@H](CCC(=O)NCCOCCOCC(=O)NCCOCCOCC(=O)N[C@@H](CCC(N)=O)C(=O)N[C@@H](CCCNC(=N)N)C(=O)N1CCC[C@H]1C(=O)N(C)[C@@H](CCCNC(=N)N)C(=O)N[C@@H](CC(C)C)C(=O)N[C@@H](CO)C(=O)N[C@@H](Cc1c[nH]cn1)C(=O)N[C@@H](CCCCN)C(=O)NCC(=O)N1CCC[C@H]1C(=O)N[C@@H](CCCC)C(=O)N1CCC[C@H]1CC(=O)N[C@@H](Cc1ccc(Cl)cc1)C(=O)O)C(=O)O [compound 426] please.
Reply: < 1%

Query: What remaining at 4 h, 5 μM value was documented for this compound, CCCCCCCCCCCCC(=O)N[C@@H](CCC(=O)NCCOCCOCC(=O)NCCOCCOCC(=O)N[C@@H](CCC(N)=O)C(=O)N[C@@H](CCCNC(=N)N)C(=O)N1CCC[C@H]1C(=O)N[C@@H](CCC(=O)O)C(=O)N[C@@H](CC(C)C)C(=O)N[C@@H](CO)C(=O)N[C@@H](Cc1c[nH]cn1)C(=O)N[C@@H](CCCCN)C(=O)NCC(=O)N1CCC[C@H]1C(=O)N[C@@H](CCCC)C(=O)N1CCC[C@H]1C(=O)N[C@@H](Cc1ccc(Cl)cc1)C(=O)O)C(=O)O [compound 477] ({Tridecanoyl-γGlu-AEEA-AEEA}-QRPELSHKGP[Nle]P[Phe(4-Cl)]-OH) ?
Reply: < 1%

====

Experiment: In vitro stability in rat plasma
Type: in vitro ADME
Method: Apelin peptides were spiked into rat plasma, liver homogenate, and kidney homogenate, which were obtained from commercial sources, to a final concentration of 5 μM. The samples were then incubated at 37° C. over a period of 4 hr. […] In a typical experiment, an aliquot of 100 μL of sample was taken from the incubation vial, followed by addition of 300 μL of MeOH containing internal standard. […] The supernatant was then analyzed by high resolution LC-MS. […]
Starred links: 1 amine or outer side, 2 acyl side, 3 side chain; linkers in the order of their positions; H or OH if unused. Non-standard residues stand in square brackets, D forms with d. Residues, ends and D or L forms follow the SMILES beside them. *: point of attachment. Oic = O=C(O)[C@@H]1C[C@@H]2CCCC[C@@H]2N1; Phe(4-Cl) = N[C@@H](Cc1ccc(Cl)cc1)C(=O)O; γGlu = O=C(O)[C@H](CCC(=O)[*:2])N[*:1]; NMeR = CN[C@@H](CCCNC(=N)N)C(=O)O; Tridecanoyl = CCCCCCCCCCCCC(=O)*; αMeL = CC(C)C[C@](C)(N)C(=O)O; Nle = CCCC[C@H](N)C(=O)O; AEEA = NCCOCCOCC(=O)O
Field: remaining at 4 h, 5 μM. Provide a value for each of the compounds that follow.
Report only the number, with the unit % understood.

Query: Reported remaining at 4 h, 5 μM, compound CCCCCCCCCCCCC(=O)N[C@@H](CCC(=O)NCCOCCOCC(=O)NCCOCCOCC(=O)N[C@@H](CCC(N)=O)C(=O)N[C@@H](CCCNC(=N)N)C(=O)N1CCC[C@@]1(C)C(=O)N[C@@H](CCCCNC(=N)N)C(=O)N[C@@](C)(CC(C)C)C(=O)N[C@@H](CO)C(=O)N[C@@H](Cc1c[nH]cn1)C(=O)N[C@@H](CCCCN)C(=O)NCC(=O)N1CCC[C@H]1C(=O)N[C@@H](CCCC)C(=O)N1CCC[C@H]1C(=O)N[C@@H](Cc1ccc(Cl)cc1)C(=O)O)C(=O)O [compound 482] : ____
Reply: 62

Query: I have this compound here, CCCCCCCCCCCCC(=O)N[C@@H](CCC(=O)NCCOCCOCC(=O)NCCOCCOCC(=O)N[C@@H](CCC(N)=O)C(=O)N(C)[C@@H](CCCNC(=N)N)C(=O)N[C@@](C)(CC(C)C)C(=O)N[C@@H](CO)C(=O)N[C@@H](Cc1c[nH]cn1)C(=O)N[C@@H](CCCCN)C(=O)NCC(=O)N1[C@H](C(=O)N[C@@H](CCCC)C(=O)N2CCC[C@H]2C(=O)N[C@@H](Cc2ccc(Cl)cc2)C(=O)O)C[C@@H]2CCCC[C@@H]21)C(=O)O [compound 397] ({Tridecanoyl-γGlu-AEEA-AEEA}-Q[NMeR][αMeL]SHKG[Oic][Nle]P[Phe(4-Cl)]-OH) , and I need its recorded remaining at 4 h, 5 μM.
Reply: 87

====

Kindly supply the reported remaining at 4 h, 5 μM values for the records listed here.
test: In vitro stability in rat plasma; type: in vitro ADME

Query: Item under review: CCCC[C@H](NC(=O)[C@@H]1CCCN1C(=O)CNC(=O)[C@H](CCCCN)NC(=O)[C@H](Cc1c[nH]cn1)NC(=O)[C@H](CO)NC(=O)[C@H](CC(C)C)NC(=O)[C@H](CCCNC(=N)N)N(C)C(=O)[C@@H]1CCCN1C(=O)[C@H](CCCNC(=N)N)NC(=O)[C@H](CCC(N)=O)NC(=O)COCCOCCNC(=O)COCCOCCNC(=O)CC[C@H](NC(=O)CCC)C(=O)O)C(=O)N1CCC[C@H]1C(=O)N[C@@H](Cc1ccc(Cl)cc1)C(=O)O [compound 491] . Reported remaining at 4 h, 5 μM?
Reply: < 1%

Query: # get_value(readout='remaining at 4 h, 5 μM', item= CCCCCCCCCCCCC(=O)N[C@@H](CCC(=O)NCCOCCOCC(=O)NCCOCCOCC(=O)N[C@H](CCC(N)=O)C(=O)N[C@@H](CCCNC(=N)N)C(=O)N1CCCC1(C)C(=O)N[C@@H](CCCCNC(=N)N)C(=O)NC(CC(=O)N[C@@H](CO)C(=O)N[C@@H](Cc1c[nH]cn1)C(=O)N[C@@H](CCCCN)C(=O)NCC(=O)N1CCCC1(C)C(=O)N[C@@H](CCCC)C(=O)N1CCCC1(C)C(=O)N[C@@H](Cc1ccc(Cl)cc1)C(=O)O)C(C)C)C(=O)O (some centres unmarked) [compound 504] )
Reply: > 90%

====

What pEC50 was measured for each of the following?
target: human APJ receptor (Homo sapiens, UniProt P35414); construct: expressed in transfected cells; experiment: [35S] GTPγS assay, human APJ receptor; format: biochemical; conditions: human APJ receptor
Sequence (P35414 whole entry): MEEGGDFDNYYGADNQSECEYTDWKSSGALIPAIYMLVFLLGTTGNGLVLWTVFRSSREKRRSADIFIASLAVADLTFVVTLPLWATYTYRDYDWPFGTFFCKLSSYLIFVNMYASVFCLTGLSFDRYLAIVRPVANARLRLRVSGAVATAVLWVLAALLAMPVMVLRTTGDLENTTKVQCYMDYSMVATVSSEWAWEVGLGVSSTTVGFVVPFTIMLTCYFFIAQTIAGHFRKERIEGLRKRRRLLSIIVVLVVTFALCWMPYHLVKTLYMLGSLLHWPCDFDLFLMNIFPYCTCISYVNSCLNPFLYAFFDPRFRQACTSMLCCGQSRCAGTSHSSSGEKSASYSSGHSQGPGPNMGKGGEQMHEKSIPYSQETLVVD
Starred links: 1 amine or outer side, 2 acyl side, 3 side chain; linkers in the order of their positions; H or OH if unused. Non-standard residues stand in square brackets, D forms with d. Residues, ends and D or L forms follow the SMILES beside them. *: point of attachment. Phe(4-Cl) = N[C@@H](Cc1ccc(Cl)cc1)C(=O)O; γGlu = O=C(O)[C@H](CCC(=O)[*:2])N[*:1]; NMehArg = CN[C@@H](CCCCNC(=N)N)C(=O)O; NMeR = CN[C@@H](CCCNC(=N)N)C(=O)O; Palmitoyl = CCCCCCCCCCCCCCCC(=O)*; Cha = N[C@@H](CC1CCCCC1)C(=O)O; β3hP = O=C(O)C[C@@H]1CCCN1; Pip = O=C(O)[C@@H]1CCCCN1; Nle = CCCC[C@H](N)C(=O)O; AEEA = NCCOCCOCC(=O)O; Aib = CC(C)(N)C(=O)O
When answering, recall that pEC50 equals minus log10 of the concentration in mol/L, and write that number alone.

Query: // returns reported pEC50 for input CCCC[C@H](NC(=O)[C@@H]1CCCN1C(=O)CNC(=O)[C@H](CCCCN)NC(=O)[C@H](Cc1c[nH]cn1)NC(=O)[C@H](CO)NC(=O)[C@H](CC(C)C)NC(=O)[C@H](CCCCNC(=N)N)N(C)C(=O)[C@H](CCCNC(=N)N)NC(=O)[C@H](CCC(N)=O)NC(C)=O)C(=O)N1CCC[C@H]1C(=O)N[C@@H](Cc1ccc(Cl)cc1)C(=O)O [compound 73] (Ac-QR[NMehArg]LSHKGP[Nle]P[Phe(4-Cl)]-OH)
Reply: 8.74

Query: Query (compound): CCCCCCCCCCCCCCCC(=O)N[C@@H](CCC(=O)NCCOCCOCC(=O)NCCOCCOCC(=O)N[C@H](CCC(N)=O)C(=O)N[C@@H](CCCNC(=N)N)C(=O)N1CCC[C@H]1C(=O)N(C)[C@@H](CCCNC(=N)N)C(=O)N[C@@H](CC1CCCCC1)C(=O)N[C@@H](CO)C(=O)N[C@@H](Cc1c[nH]cn1)C(=O)N[C@@H](CCCCN)C(=O)NCC(=O)N1CCCC[C@H]1C(=O)NC(C)(C)C(=O)N[C@@H](Cc1ccc(Cl)cc1)C(=O)O)C(=O)O [compound 581] ({Palmitoyl-γGlu-AEEA-AEEA}-[dQ]RP[NMeR][Cha]SHKG[Pip][Aib][Phe(4-Cl)]-OH) ; field requested: pEC50
Reply: 8.85

Query: Which pEC50 value is on record for CCCCCCCCCCCCCCCC(=O)N[C@@H](CCC(=O)NCCOCCOCC(=O)NCCOCCOCC(=O)N[C@H](CCC(N)=O)C(=O)N[C@@H](CCCNC(=N)N)C(=O)N1CCC[C@H]1C(=O)N(C)[C@@H](CCCNC(=N)N)C(=O)N[C@@H](CC1CCCCC1)C(=O)N[C@@H](CO)C(=O)N[C@@H](Cc1c[nH]cn1)C(=O)N[C@@H](CCCCN)C(=O)NCC(=O)N1CCC[C@H]1CC(=O)N[C@@H](CCCC)C(=O)N[C@@H](Cc1ccc(Cl)cc1)C(=O)O)C(=O)O [compound 613] ({Palmitoyl-γGlu-AEEA-AEEA}-[dQ]RP[NMeR][Cha]SHKG[β3hP][Nle][Phe(4-Cl)]-OH) ?
Reply: 8.78

The measured values listed here are drawn from patent US11807693B2.
